Reference for the values: patent US20220112288A1

assay system: T1, human CD4 on the surface of SKW3 cells or human PBMCs (human, UniProt P01730 26-458)
T1 construct: whole, on cells; SKW3 CD4 knockout cells served as the negative cell line; also called hCD4; SKW3 WT
assay explanation: FACS confirmation, supernatant on SKW3 WT cells, anti-mouse Fc A647; background gMFI 3300

binder	value units	SKW3 WT anti-mFc 647, gMFI
75110_02E08A (antibody, V domains shown, Tested here as non-clonal hybridoma supernatant from AlivaMab Mouse Kappa mice (detected with anti-mouse Fc and anti-human kappa)) VH: QVQLQESGPGLVKPSETLSLTCTVSGGSISTYYWTWIRQPAGKGLEWIGRVYTSGDTNYNPSLKSRVAMSLDTSKNQFSLKLSSVTAADTAVYYCARDSGALYSWNYGDAFDIWGQGTMVTVSS VL: DIQMTQSPSAMSASVGDRVTITCRASQDISNYLAWFQQKPGKVPKRLIYAASSLQSGVPSRFSGSGSGTEFTLTISSLQPEDFATYYCLQHNSYPRTFGQGTKVEIK	gMFI	30900
75110_01A06A (antibody, V domains shown, Tested here as non-clonal hybridoma supernatant from AlivaMab Mouse Kappa mice (detected with anti-mouse Fc and anti-human kappa)) VH: EVQLVESGGGLVQPGGSLRLSCAASGFTFSSYWMSWVRQAPGKGLEWVANINEDGNEKYYVDSVKGRLTISRDNAKNSLYLQMNSLRAEDTAVYFCAREGGQWLSLDYWGQGALVTVSS VL: DIQMTQSPSSVSASVGDRVSITCRASQGISSWLAWYQQKPGKAPKILIYGASSLQSGVPSRFSGSGSGTDFTLTISSLQPEDFATYYCQQANSFPWTFGQGTKVEIK	gMFI	32300
75110_01J09A (antibody, V domains shown, Tested here as non-clonal hybridoma supernatant from AlivaMab Mouse Kappa mice (detected with anti-mouse Fc and anti-human kappa)) VH: EVQLVESGGGLVQPGGSLRLSCVASGFTFSSYWMSWVRQAPGKGLEWVANTKEDGSDKYYVDSVKGRFTICRDNAKNSLYLQMNSLRAEDTAVYYCAREGGQWLALDYWGQGTLVTVSS VL: DIQMTQSPSSVSASVGDRVTINCRASQGISSWLAWYQQKPGKAPNLLIFGASSLQSGVPSRFSGSGFGTDFSLTITTLQPEDFATYHCQQANSFPWTFGQGTKVEIK	gMFI	32300
75110_09N20A (antibody, V domains shown, Tested here as non-clonal hybridoma supernatant from AlivaMab Mouse Kappa mice (detected with anti-mouse Fc and anti-human kappa)) VH: EVQLVESGGGLVQPGGSLRLSCAASGFTFSSYWMSWVRQAPGKGLEWVANINEDGSEKYYVDSVKGRFTISRDNAKNSLYLQMNSLRAEDTAVYYCVREGGQWLALDYWGQGTLVTVSS VL: DIQMTQSPSSVSASVGDRVTITCRASQGISSWLAWYQQKPGKAPKLLIYAASSLQSGVPSSFSGSGSGTDFTLTINSLQPEDFATYYCQQANSFPWTFGQGTKVAIK	gMFI	24800
